tested on: tumorous organoid cultures (bladder cancer); experiment: Cell viability (CellTiter-Glo 3D) of tumorous bladder organoid cultures; format: cell-based, human; conditions: tumor organoid culture, treated from day 8 to day 15, viability by CellTiter-Glo 3D
metric: IC50 (nM)
Reply with just the number (in nM).

Provide the documented IC50 with tumorous organoid cultures (bladder cancer) as the system for N.N.[Cl][Pt][Cl] [cisplatin]
1750
